System: P12-Ichikawa
Assay: cell viability relative to DMSO control; higher = less cytotoxic
Settings: RPMI 5 mM glucose + 10% dialyzed FBS; 48 h; 0.19 µM
In this section we review reported cell viability values for a set of compounds.
Measurement type: cell viability (%)

* CC(NC1=CC=CC=C1)C\2=C\C(=C/N3C(=O)\C=C(/N=C23)N4CCOCC4)C (stereo not drawn) | 115
* C\C1=C\C(=O)OC2=C1C=CC(=C2)O | 108
* COC1=CC=CC=C1C2=CC=CC(=C2)C/3=C(O)/C4=CC(=C(Cl)C=C4NC3=O)C#N | 101
* Cc1cn2c(-c3cn[nH]c3)cnc2c(Nc2ccc(C(=O)N3CCNCC3)cc2F)n1 | 107
* COC1=C(N2CCNC(C)C2)C(=CC3=C1N(\C=C(C(O)=O)/C3=O)C4CC4)F (stereo not drawn) | 98.1
* CC1(C)Cc2c(-c3ccccc3)c(-c3ccc(Cl)cc3)c(CC(=O)O)n2C1 | 102
* CC(C)[C@@H](N(CCCN)C(=O)C1=CC=C(C)C=C1)C/2=N/C3=CC(=CC=C3C(=O)N2CC4=CC=CC=C4)Cl | 13.4
* CC(=O)O[C@H]1C[C@@H]2CC[C@@H]3[C@H](CC[C@@]4(C)[C@H]3C[C@H]([N+]3(C)CCCCC3)[C@@H]4OC(C)=O)[C@@]2(C)C[C@@H]1[N+]1(C)CCCCC1 | 125
* CC\1=C/C=C\C=[N]1[Pt](N)(Cl)Cl | 112
* CN\1C(=O)/C(=C(\N=C1N2CCCC[S+]2([O-])=O)C(=O)NCC3=CC=C(F)C=C3)O | 117
* CC(=O)O.Cc1c(-c2ccc(O)cc2)n(Cc2ccc(OCCN3CCCCCC3)cc2)c2ccc(O)cc12 | 98.9
* CN(CC#C)C/C1=C/C2=CC=CC=C2OC3=CC=CC=C13 | 87.9
* Oc1ccc2c3c1O[C@H]1c4[nH]c5c(c4C[C@@]4(O)[C@@H](C2)N(CC2CC2)CC[C@]314)C[C@@]1(O)[C@H]2Cc3ccc(O)c4c3[C@@]1(CCN2CC1CC1)[C@H]5O4 | 123
* Cl.Cl.Cl.O[C@@H](COc1cccc2ncccc12)CN1CCN([C@@H]2c3ccccc3[C@@H]3[C@H](c4ccccc42)C3(F)F)CC1 | 84.6
* CCC[C@H](NC(=O)/C(C#N)=C/c1cccc(Br)n1)c1ccccc1 | 121
* CCN(CC)CC#CCOC(=O)C(O)(c1ccccc1)C1CCCCC1 (stereo not drawn) | 135
* ClC1=C(N\C2=N\CCN2)C3=NSN=C3C=C1 | 116
* CC(=O)Nc1ccc(OC[C@](C)(O)C(=O)Nc2ccc([N+](=O)[O-])c(C(F)(F)F)c2)cc1 | 76.4
* CC(C)(C)c1cc(NC(=O)Nc2ccc(-c3cn4c(n3)sc3cc(OCCN5CCOCC5)ccc34)cc2)no1 | 92.1
* C/C=C(/C)C(=O)O[C@H]1C(C)=C2[C@H]([C@@H]1OC(=O)CCCCCCC)[C@@](C)(OC(C)=O)C[C@H](OC(=O)CCC)[C@@]1(O)[C@H]2OC(=O)[C@@]1(C)O | 52.6
* Nc1ccccc1NC(=O)c1ccc(CNC(=O)OCc2cccnc2)cc1 | 113
* O=C([O-])C(O)Cc1ccc(O)c(O)c1 (stereo not drawn) | 96.8
* Cc1c(CN2CCN(C(=O)[C@H](C)O)CC2)sc2c(N3CCOCC3)nc(-c3cnc(N)nc3)nc12 | 77.8
* COC(=O)Nc1nc2cc(C(=O)c3cccs3)ccc2[nH]1 | 27.3
* CC1CCC(C(=O)N(c2cc(C#CC(C)(C)C)sc2C(=O)O)C2CCC(O)CC2)CC1 (stereo not drawn) | 83.8
* COc1cnc(N[S+](=O)([O-])c2ccc(N)cc2)nc1 | 118
* COc1nccc(-c2c(-c3ccc(F)cc3)ncn2C2CCNCC2)n1 | 110
* OC1=CC=C(C=C1)\C2=C\OC3=C(C=CC(=C3)O)C2=O | 96.7
